System: Escherichia coli TOP10
Experiment: shrunken log2 fold change of peptide-encoding DNA abundance (4.5 h post-induction vs induction); higher = less antimicrobial activity (less host growth inhibition)
Conditions: time post-induction: 4.5 h; library: site-saturation at positions 5, 18, 19, 20
shrunken log2 fold change values for the sequences below.
Number only, please.

// below: answered sequences
# sequence_code, shrunken log2 fold change
data = [
    ("RRIRHRPPRLPRPRPRPKFDPRP", -0.336),
    ("RRIRGRPPRLPRPRPRPKNDPRP", 0.698),
    ("RRIRCRPPRLPRPRPRPFKMPRP", -0.854),
    ("RRIRRRPPRLPRPRPRPTFFPRP", 0.722),
    ("RRIRCRPPRLPRPRPRPVPMPRP", 0.998),
    ("RRIRKRPPRLPRPRPRPERFPRP", -0.0391),
]

Note: attention shifts to another entry.
Query :: For RRIRIRPPRLPRPRPRPTPAPRP , what is its reported shrunken log2 fold change?
Result :: 0.198

---

shrunken log2 fold change values for the sequences below.
Test system: Escherichia coli TOP10
Assay: shrunken log2 fold change of peptide-encoding DNA abundance (4.5 h post-induction vs induction); higher = less antimicrobial activity (less host growth inhibition)
Conditions: time post-induction: 4.5 h; library: site-saturation at positions 5, 18, 19, 20
Number only, please.

// below: answered sequences
# sequence_code, shrunken log2 fold change
records = [
    ("RRIRARPPRLPRPRPRPDERPRP", 0.423),
    ("RRIRHRPPRLPRPRPRPWYRPRP", -0.0954),
    ("RRIRVRPPRLPRPRPRPPQDPRP", 0.27),
    ("RRIRARPPRLPRPRPRPVMQPRP", 0.305),
    ("RRIRYRPPRLPRPRPRPNRQPRP", -0.053),
    ("RRIRWRPPRLPRPRPRPAFDPRP", 0.397),
    ("RRIRLRPPRLPRPRPRPFSPPRP", 2.3),
    ("RRIRQRPPRLPRPRPRPKPAPRP", 0.357),
    ("RRIRFRPPRLPRPRPRPYWCPRP", -0.399),
    ("RRIRIRPPRLPRPRPRPTMVPRP", -0.719),
]

Query :: For RRIRRRPPRLPRPRPRPLTDPRP , what is its reported shrunken log2 fold change?
Result :: 0.223

Query :: Lookup RRIRVRPPRLPRPRPRPFCYPRP
Result :: -0.133

Query :: Lookup RRIRLRPPRLPRPRPRPRRGPRP
Result :: 0.543

Query :: Lookup RRIRRRPPRLPRPRPRPPPIPRP
Result :: 0.978

Query :: Lookup RRIRYRPPRLPRPRPRPWCNPRP
Result :: -0.123

---

Tested on: Escherichia coli TOP10
Assay: shrunken log2 fold change of peptide-encoding DNA abundance (4.5 h post-induction vs induction); higher = less antimicrobial activity (less host growth inhibition)
Settings: time post-induction: 4.5 h; library: site-saturation at positions 5, 18, 19, 20
shrunken log2 fold change values for the sequences below.

# sequence_code, shrunken log2 fold change
measured = [
    ("RRIRPRPPRLPRPRPRPKFDPRP", 0.163),
    ("RRIRPRPPRLPRPRPRPKYAPRP", -0.102),
    ("RRIRFRPPRLPRPRPRPFRNPRP", 0.0579),
    ("RRIRPRPPRLPRPRPRPMYPPRP", -0.135),
    ("RRIRWRPPRLPRPRPRPVITPRP", 0.362),
]

Note: attention shifts to another entry.
Query :: For RRIRMRPPRLPRPRPRPTCRPRP , what is its reported shrunken log2 fold change?
Result :: 0.32

---

System: Escherichia coli TOP10
Test: shrunken log2 fold change of peptide-encoding DNA abundance (4.5 h post-induction vs induction); higher = less antimicrobial activity (less host growth inhibition)
Conditions: time post-induction: 4.5 h; library: site-saturation at positions 5, 18, 19, 20
value_type: shrunken log2 fold change
Number only, please.

// below: answered sequences
# sequence_code, shrunken log2 fold change
data = [
    ("RRIRARPPRLPRPRPRPCEKPRP", 0.0244),
    ("RRIRLRPPRLPRPRPRPVWYPRP", -0.277),
    ("RRIRPRPPRLPRPRPRPLIFPRP", -0.411),
    ("RRIRIRPPRLPRPRPRPHVAPRP", -0.189),
    ("RRIRIRPPRLPRPRPRPYVNPRP", -0.0125),
    ("RRIRGRPPRLPRPRPRPHDTPRP", 0.358),
    ("RRIRMRPPRLPRPRPRPLHTPRP", 2.66),
]

Query :: For RRIRLRPPRLPRPRPRPAQQPRP , what is its reported shrunken log2 fold change?
Result :: 0.0982

---

System: Escherichia coli TOP10
Experiment: shrunken log2 fold change of peptide-encoding DNA abundance (4.5 h post-induction vs induction); higher = less antimicrobial activity (less host growth inhibition)
Conditions: time post-induction: 4.5 h; library: site-saturation at positions 5, 18, 19, 20
value_type: shrunken log2 fold change
Number only, please.

# sequence_code, assay_system, shrunken log2 fold change
data = [
    ("RRIRIRPPRLPRPRPRPYEYPRP", "Escherichia coli TOP10", -0.0772),
    ("RRIRDRPPRLPRPRPRPQCNPRP", "Escherichia coli TOP10", -0.0196),
]

Query :: Find the measured shrunken log2 fold change: item RRIRIRPPRLPRPRPRPFHGPRP , target or system Escherichia coli TOP10.
Result :: -0.146

Query :: Lookup RRIRERPPRLPRPRPRPSQQPRP
Result :: 0.0678

---

shrunken log2 fold change values for the sequences below.
Test system: Escherichia coli TOP10
Assay: shrunken log2 fold change of peptide-encoding DNA abundance (4.5 h post-induction vs induction); higher = less antimicrobial activity (less host growth inhibition)
Settings: time post-induction: 4.5 h; library: site-saturation at positions 5, 18, 19, 20
Number only, please.

Query :: For RRIRKRPPRLPRPRPRPAPCPRP , what is its reported shrunken log2 fold change?
Result :: 0.432

---

System: Escherichia coli TOP10
Assay: shrunken log2 fold change of peptide-encoding DNA abundance (4.5 h post-induction vs induction); higher = less antimicrobial activity (less host growth inhibition)
Conditions: time post-induction: 4.5 h; library: site-saturation at positions 5, 18, 19, 20
shrunken log2 fold change below 0.02 gives 0 (no); shrunken log2 fold change at or above it gives 1 (yes).

Below, 6 sequences whose answers are already recorded.
# sequence_code, discrete_label
rows = [
    ("RRIRHRPPRLPRPRPRPCNEPRP", "0 (no)"),
    ("RRIRNRPPRLPRPRPRPNFAPRP", "1 (yes)"),
    ("RRIRERPPRLPRPRPRPTMGPRP", "0 (no)"),
    ("RRIRRRPPRLPRPRPRPVSEPRP", "1 (yes)"),
    ("RRIRCRPPRLPRPRPRPHYWPRP", "0 (no)"),
    ("RRIRYRPPRLPRPRPRPDGTPRP", "1 (yes)"),
]

Query :: Could you tell me if the measured shrunken log2 fold change of RRIRNRPPRLPRPRPRPVMKPRP reaches 0.02 or more?
Result :: 1 (yes)

Query :: Lookup RRIRSRPPRLPRPRPRPQFGPRP
Result :: 1 (yes)

---

System: Escherichia coli TOP10
Assay: shrunken log2 fold change of peptide-encoding DNA abundance (4.5 h post-induction vs induction); higher = less antimicrobial activity (less host growth inhibition)
Conditions: time post-induction: 4.5 h; library: site-saturation at positions 5, 18, 19, 20
shrunken log2 fold change below 0.1 gives 0 (no); shrunken log2 fold change at or above it gives 1 (yes).

Query :: Could you tell me if the measured shrunken log2 fold change of RRIRGRPPRLPRPRPRPYNLPRP reaches 0.1 or more?
Result :: 0 (no)

Query :: Lookup RRIRARPPRLPRPRPRPMWYPRP
Result :: 0 (no)

Query :: Lookup RRIRKRPPRLPRPRPRPVHEPRP
Result :: 1 (yes)

Query :: Lookup RRIRCRPPRLPRPRPRPGNVPRP
Result :: 0 (no)

Query :: Lookup RRIRDRPPRLPRPRPRPPQWPRP
Result :: 1 (yes)

Query :: Lookup RRIRVRPPRLPRPRPRPMDFPRP
Result :: 0 (no)

Query :: Lookup RRIRWRPPRLPRPRPRPEKQPRP
Result :: 0 (no)

---

Tested on: Escherichia coli TOP10;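 also: peptides expressed intracellularly from a pBAD plasmid library in pooled LB shake-flask culture, induced with 0.3% L-arabinose, DNA abundance read by NGS, three biological replicates, DESeq2 with apeglm shrinkage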
Assay: shrunken log2 fold change of peptide-encoding DNA abundance (4.5 h post-induction vs induction); higher = less antimicrobial activity (less host growth inhibition)
Settings: time post-induction: 4.5 h; library: site-saturation at positions 5, 18, 19, 20
shrunken log2 fold change values for the sequences below.
Number only, please.

// below: answered sequences
# sequence_code, assay_system, value_observed
records = [
    ("RRIRERPPRLPRPRPRPHGPPRP", "Escherichia coli TOP10", 0.139),
    ("RRIRRRPPRLPRPRPRPTAQPRP", "Escherichia coli TOP10", 0.244),
    ("RRIRTRPPRLPRPRPRPRTRPRP", "Escherichia coli TOP10", 0.204),
    ("RRIRPRPPRLPRPRPRPHYFPRP", "Escherichia coli TOP10", -0.335),
    ("RRIRFRPPRLPRPRPRPDWHPRP", "Escherichia coli TOP10", -0.152),
]

Note: attention shifts to another entry.
Query :: For RRIRWRPPRLPRPRPRPYQPPRP , what is its reported shrunken log2 fold change?
Result :: -0.0963
